Test target: ATP-binding cassette sub-family B member 6 (Homo sapiens) (UniProt Q9NP58)
Sequence (Q9NP58 whole entry, looked up): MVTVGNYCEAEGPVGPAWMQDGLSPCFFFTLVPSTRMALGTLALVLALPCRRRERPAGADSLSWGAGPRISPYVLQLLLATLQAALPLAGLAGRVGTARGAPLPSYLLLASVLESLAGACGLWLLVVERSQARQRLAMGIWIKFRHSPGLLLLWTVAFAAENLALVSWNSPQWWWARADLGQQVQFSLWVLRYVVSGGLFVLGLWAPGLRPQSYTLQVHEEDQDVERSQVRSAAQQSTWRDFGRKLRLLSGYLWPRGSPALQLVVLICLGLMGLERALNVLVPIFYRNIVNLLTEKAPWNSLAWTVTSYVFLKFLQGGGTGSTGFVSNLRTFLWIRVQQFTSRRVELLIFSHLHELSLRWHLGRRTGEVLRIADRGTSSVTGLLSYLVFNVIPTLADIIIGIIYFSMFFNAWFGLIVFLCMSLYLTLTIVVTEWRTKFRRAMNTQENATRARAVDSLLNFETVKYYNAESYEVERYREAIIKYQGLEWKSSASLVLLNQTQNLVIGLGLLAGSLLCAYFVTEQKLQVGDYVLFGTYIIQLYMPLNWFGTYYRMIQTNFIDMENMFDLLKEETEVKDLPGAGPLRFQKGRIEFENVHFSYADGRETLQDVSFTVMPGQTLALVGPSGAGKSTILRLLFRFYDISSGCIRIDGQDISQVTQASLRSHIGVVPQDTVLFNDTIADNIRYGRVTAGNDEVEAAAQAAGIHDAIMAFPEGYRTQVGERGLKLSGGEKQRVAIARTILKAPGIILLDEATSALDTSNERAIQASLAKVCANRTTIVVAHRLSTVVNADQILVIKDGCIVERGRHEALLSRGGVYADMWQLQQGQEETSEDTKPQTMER
Test method notes: ABCB6 transporter inhibitors, pilot screen, K562-ABCB6 cells, flow cytometry, validation set (AID 588550);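 also: 0% = DMSO wells and 100% = benzethonium chloride 70 µM positive control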
Study conditions: K562-ABCB6 porphyrin accumulation, 1 h, at 10 µM, stronger effect = higher value
Measured inhibition accompanies every entry in the list below.

Compound: CCNCCC(CCC(C)C)c1ccc2c(c1)OCO2 (stereo unspecified)
Readout unit: %
inhibition: -3

Compound: COc1ccc(NC(=O)C2C(=O)N(CCO)C3(C)CC2c2ccccc2O3)cc1 (stereo unspecified)
Readout unit: %
inhibition: 13

Compound: COc1ccc2c(c1OC)C(=O)NC(C)=C(C(=O)OC(C)(C)C)C2O (stereo unspecified)
Readout unit: %
inhibition: 7

Compound: COc1c2occc2c(OC)c2c(=O)cc(C)oc12
Readout unit: %
inhibition: 5

Compound: CC(=O)OCC(=O)[C@@]12OC(C)(C)O[C@@H]1C[C@H]1[C@@H]3C[C@H](F)C4=CC(=O)C=C[C@]4(C)[C@@]3(F)[C@@H](O)C[C@@]12C
Readout unit: %
inhibition: 8

Compound: COc1ccc(-c2coc3cc(OC(=O)N4CCOCC4)ccc3c2=O)cc1
Readout unit: %
inhibition: 10

Compound: Fc1cc(F)cc(NC(=S)NCCCN2CCOCC2)c1
Readout unit: %
inhibition: 2

Compound: CC(=O)NCCCCCCNC(C)=O
Readout unit: %
inhibition: 5

Compound: O=Cc1ccc(N2CCCCC2)cc1
Readout unit: %
inhibition: 4

Compound: CN1CCC(OC(c2ccccc2)c2ccccc2)CC1
Readout unit: %
inhibition: 9

Compound: CC(=O)c1cn(C)c(=O)[nH]c1=O
Readout unit: %
inhibition: 2

----------
Test method notes: LAP4-GFP expression modulators in yeast, confirmation, cell-based, cherry picks, flow cytometry, mother/daughter gates (AID 2271);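 also: ratio of sample to DMSO plate mean so 100% equals DMSO level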
Study conditions: S. cerevisiae LAP4-GFP strain, 3 h, measured here: daughter cell gate response, at 10 µM, stronger effect = higher value, 100 means same as DMSO control
Measured GFP response relative to DMSO accompanies every entry in the list below.
Measurement kind: GFP response relative to DMSO (%)

Molecule: O=C(O)c1ccc(N/N=C/c2c(F)cccc2Cl)cc1
Measurement kind: GFP response relative to DMSO
Recorded result: 121
--
Molecule: Cc1cc2ccccn2c1C(=O)c1ccc([N+](=O)[O-])o1
Measurement kind: GFP response relative to DMSO
Recorded result: 182
--
Molecule: N/C(Cc1ccc(Cl)cc1)=N\OC(=O)c1cccc2ccccc12
Measurement kind: GFP response relative to DMSO
Recorded result: 127
--
Molecule: C=CCn1c(=O)c(C(=O)Nc2ccccc2O)c(O)c2ccccc21
Measurement kind: GFP response relative to DMSO
Recorded result: 106
--
Molecule: Cc1ccc2nc(/C(C#N)=C/c3ccc(O)c(O)c3)[nH]c2c1
Measurement kind: GFP response relative to DMSO
Recorded result: 110
--
Molecule: O=C(OCc1ccco1)c1ccc(S(=O)(=O)N2CCCCC2)cc1
Measurement kind: GFP response relative to DMSO
Recorded result: 97.5
--
Molecule: CCOC(=O)C1=C(C)N=C2SC(C(=O)OC)=CC(=O)N2C1c1ccc(F)cc1 (centres undefined)
Measurement kind: GFP response relative to DMSO
Recorded result: 110
--
Molecule: CC(C(=O)O)n1nc(-c2ccccc2)c2ccccc21 (centres undefined)
Measurement kind: GFP response relative to DMSO
Recorded result: 101
--
Molecule: C/C(=N\NC(=O)Cc1ccc([N+](=O)[O-])cc1)c1cccnc1
Measurement kind: GFP response relative to DMSO
Recorded result: 97.5
--
Molecule: O=[N+]([O-])c1cc(C(F)(F)F)ccc1NCCc1ccccn1
Measurement kind: GFP response relative to DMSO
Recorded result: 92.2
--
Molecule: COC(=O)Nc1c(-c2ccccc2)nc2ccccn12
Measurement kind: GFP response relative to DMSO
Recorded result: 106
--
Molecule: Cc1ccc(N(C(=O)CNC(=O)c2ccco2)C(C(=O)NC2CCCC2)c2cccnc2)cc1C (centres undefined)
Measurement kind: GFP response relative to DMSO
Recorded result: 95.9
--
Molecule: Cc1cccc(Sc2ccc([N+](=O)[O-])cn2)c1
Measurement kind: GFP response relative to DMSO
Recorded result: 92
--
Molecule: O=Nc1c(O)c2ccccc2c2ccccc12
Measurement kind: GFP response relative to DMSO
Recorded result: 113
--
Molecule: c1ccc2oc(SCc3nc4ccccc4s3)nc2c1
Measurement kind: GFP response relative to DMSO
Recorded result: 104
--
Molecule: COc1ccc(-c2nc3cccc(C)n3c2NCc2ccco2)cc1OC
Measurement kind: GFP response relative to DMSO
Recorded result: 101
--
Molecule: COc1cc(NC(=O)c2ccc(Br)cc2)ccc1NC(=O)c1cc2ccccc2o1
Measurement kind: GFP response relative to DMSO
Recorded result: 98.7
--
Molecule: O=C1C2C3C=CC(CNS(=O)(=O)c4ccccc4[N+](=O)[O-])(O3)C2C(=O)N1c1ccccc1 (centres undefined)
Measurement kind: GFP response relative to DMSO
Recorded result: 99.7
--
Molecule: CS(=O)(=O)c1nc(-c2cccs2)cc(C(F)(F)F)n1
Measurement kind: GFP response relative to DMSO
Recorded result: 164
--
Molecule: COc1cc(/C=C2/C(=O)ON=C2c2ccccc2)ccc1O
Measurement kind: GFP response relative to DMSO
Recorded result: 108
--
Molecule: CCN(CC)c1ccc(/C=C2\SC(=O)N(C(C)C)C2=O)o1
Measurement kind: GFP response relative to DMSO
Recorded result: 116
--
Molecule: CCOc1ccc(N2C(=O)CC(Sc3ncccn3)C2=O)cc1 (centres undefined)
Measurement kind: GFP response relative to DMSO
Recorded result: 97.6
--
Molecule: CC(C)(C)C(=O)C(Cl)C(=O)Nc1ccccc1 (centres undefined)
Measurement kind: GFP response relative to DMSO
Recorded result: 186
--
Molecule: Cc1nnc(OCc2nc3ccccc3n2C)c2ccccc12
Measurement kind: GFP response relative to DMSO
Recorded result: 93.6

----------
Test method notes: modulators of CIT2-GFP expression in yeast, confirmation, S. cerevisiae, GFP fusion, cherry picks, mother/daughter gates (AID 2274)
Study conditions: S. cerevisiae CIT2-GFP strain, flow cytometry, 3 h; at 10 µM
Calls of active or inactive are those of the source.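 How the source made its calls: active means GFP response above 150% of the DMSO level; inconclusive means fewer than 70 events counted for a yeast strain; inactive means the rest.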
Classes used: 1 for active, -1 for inactive

Compound: CCc1ccc(C(=O)/C=C/c2ccc([N+](=O)[O-])o2)cc1
Assigned class: 1
//
Compound: Cc1ccccc1C(=O)Nc1ccccc1
Assigned class: -1
//
Compound: COc1cccc(NC(=O)Nc2ccc3c(c2)nnn3C)c1
Assigned class: -1
//
Compound: N#Cc1ccc(Sc2ccccn2)c([N+](=O)[O-])c1
Assigned class: -1
//
Compound: O=[N+]([O-])c1cccnc1S(=O)(=O)c1ccccc1
Assigned class: -1
//
Compound: Cc1ccc(/C=C/C(=O)N2CC(C)CC(C)C2)o1 (centres undefined)
Assigned class: -1
//
Compound: O=C(O)Cc1sc(Nc2ccc(F)cc2)nc1-c1cccs1
Assigned class: -1
//
Compound: COc1ccccc1CNC(=O)CS(=O)Cc1nc(-c2ccc(OC)c(OC)c2)oc1C (centres undefined)
Assigned class: -1
//
Compound: CCOC(=O)C(=CNNc1cccc(Cl)c1)C(=O)OCC
Assigned class: -1
//
Compound: O=C(CN1CCN(Cc2ccccc2Cl)C1=O)NC1CCCCCCC1
Assigned class: -1
//
Compound: CCOC(=O)c1ccc2nc(Nc3nc4ccc(F)cc4s3)sc2c1
Assigned class: -1
//
Compound: CN(C)c1ccc(N=Cc2nc(-c3ccccc3)oc2OC(=O)c2cccc(Br)c2)cc1
Assigned class: -1
//
Compound: CCn1c(=O)c(C(=O)Nc2nc3ccccc3[nH]2)c(O)c2ccccc21
Assigned class: -1
//
Compound: COc1ccccc1-c1nnc(NC(=O)c2ccc(S(=O)(=O)N(C)C)cc2)o1
Assigned class: -1
//
Compound: COCCN(CCOC)S(=O)(=O)c1ccc(C(=O)Nc2nnc(C3CC3)o2)cc1
Assigned class: -1
//
Compound: COc1ccc([N+](=O)[O-])c(S(=O)(=O)c2ccc(Cl)cc2)n1
Assigned class: -1
//
Compound: COc1ccccc1-c1noc(CCC(=O)Nc2cccc(C)c2)n1
Assigned class: -1
//
Compound: CCN(CC)C(=O)Cn1c(C)c(/C=C/c2cc[n+](C)cc2)c2ccccc21
Assigned class: -1
//
Compound: CCN(CC(=O)NC(C)(C)C)C(=O)COc1c(Cl)cc(Cl)c2ccc(C)nc12
Assigned class: -1
//
Compound: Cc1ccsc1C(=O)N(Cc1nnc(-c2ccccc2Cl)o1)C1CC1
Assigned class: -1
//
Compound: Cc1ccc(C2CC(c3ccco3)=NN2S(C)(=O)=O)cc1 (centres undefined)
Assigned class: -1
//
Compound: COc1cc(/C=C2/C(=O)ON=C2c2ccccc2)ccc1O
Assigned class: -1
//
Compound: O=[N+]([O-])c1ccc(Sc2ccc(Cl)c(Cl)c2)nc1
Assigned class: -1
//
Compound: COc1ccccc1OCCCc1c(C)n[nH]c1C
Assigned class: -1
//
Compound: Cc1nn(C)cc1C(C)NC(=O)c1cc(COc2ccc(F)c(F)c2)on1 (centres undefined)
Assigned class: -1
//
Compound: O=C(Nc1cccc(Cl)c1N1CCCC1)c1ccc([N+](=O)[O-])o1
Assigned class: -1
//
Compound: O=C(Nc1cc(Sc2ccccn2)cc([N+](=O)[O-])c1)c1cccc(F)c1
Assigned class: -1
//
Compound: Cc1cccc(CS(=O)(=O)c2ncc(Cl)c(C(=O)Nc3nnc(C(C)C)s3)n2)c1
Assigned class: -1
//
Compound: CC(=O)Oc1oc(-c2ccccc2)nc1C=Nc1ccc(N(C)C)cc1
Assigned class: -1
//
Compound: Cc1ccc(C(=O)N/C(=C/c2ccco2)C(=O)N2CCOCC2)cc1
Assigned class: -1
//
Compound: COc1cccc(C(=O)N/N=C(\CC(C)C)c2ccccc2)c1
Assigned class: -1
//
Compound: COc1ccc(/C=C/C(=O)NC(=S)NNC(=O)c2cnccn2)cc1
Assigned class: -1
//
Compound: O=C(/C=C/c1ccccc1[N+](=O)[O-])c1ccccc1Br
Assigned class: -1
//
Compound: C=CCOc1ccc(C(=O)n2cc(C(=O)OC)c3ccccc32)cc1
Assigned class: -1
//
Compound: O=C(Nc1cccc(O)c1)c1ccc(Br)cc1
Assigned class: -1
//
Compound: O=C(Nc1cc(Sc2ccccn2)cc([N+](=O)[O-])c1)c1ccc(Cl)cc1
Assigned class: -1
//
Compound: CCOC(=O)Cc1csc(NC(=O)CCCCCN2C(=O)c3cccc4cccc(c34)C2=O)n1
Assigned class: -1
//
Compound: NS(=O)(=O)c1ccc(Sc2ccccn2)c([N+](=O)[O-])c1
Assigned class: -1
//
Compound: Cc1cc(O)c(C(=O)/C=C/c2cccc([N+](=O)[O-])c2)c(=O)o1
Assigned class: -1
//
Compound: O=C(COC(=O)/C=C/c1cccs1)Nc1nc(-c2cccc(Br)c2)cs1
Assigned class: -1
//
Compound: COc1cc(NC(=O)c2ccc(C)cc2)ccc1NC(=O)c1cc2ccccc2o1
Assigned class: -1
//
Compound: COc1ccccc1Oc1ccc(S(=O)(=O)N2CCCC2)cc1
Assigned class: -1
//
Compound: CC(=O)S[C@@H]1CC2=CC(=O)CC[C@]2(C)[C@H]2CC[C@@]3(C)[C@@H](CC[C@@]34CCC(=O)O4)[C@H]12
Assigned class: -1
//
Compound: COC(=O)c1ccc(/C=C/C(=O)c2cccc(OC)c2)cc1
Assigned class: -1

All figures here come from PubChem BioAssay.
